Assay: qHTS for Inhibitors of human tyrosyl-DNA phosphodiesterase 1 (TDP1): qHTS in cells in absence of CPT; note: nearly all actives have a fitted effect of over 55% in size
Conditions: DT40 Tdp1-/- hTDP1 cells, no CPT, ATP luminescence, 48 h
The campaign covered roughly 420,000 compounds. About 64,000 (15%) were called active. Another 27% or so got no clear call; they are omitted. The list is a sample of the results. Peptide text beside a SMILES is read from it.
OBSERVED_PROPERTY: outcome

See these solved cases before continuing.
COc1ccc(/C=N/S(=O)(=O)c2ccccc2)cc1OC    inactive
C/C(=N\NC(=O)c1cccc(N2CCCC2=O)c1)c1ccc(N)cc1    inactive
CCOc1cc(/C=N/NC(=O)CN2CCCCC2)ccc1O    inactive
COc1ccc(/C=N/Nc2ccccc2C(=O)O)cc1    inactive

Kindly review the next compound as well.
For reference, reported outcome for COC(=O)CNC(=O)C(CCSC)NC(C)=O (stereo not given) (HELM PEPTIDE1{[ac].[CSCCC(N[*:1])C(=O)[*:2]].G.[CO[*:1]]}$$$$V2.0) stands at inactive
